system: RSV replicon; assay: microbe, parasite or virus in culture; format: cell-based; details: human respiratory syncytial virus, read-out: EC50, the concentration of the drug required for reducing RSV replicon RNA by 50%
I'd be grateful if you could share measured EC50 for these entries.

Worked examples, 10 compounds total:
- COc1cc(C(=O)NCC(O)(c2cc(C(C)(C)N)cc(-c3ccc(F)c(Cl)c3)n2)C(F)(F)F)ccc1OCC(F)(F)F (stereo not drawn) [Compound 325]: < 1000 nM
- COc1cc(C(=O)NCC(O)(c2ccc(OC)c(-c3ccc(F)c(Cl)c3)n2)C2CC2)ccc1OCc1ncn[nH]1 (stereo not drawn) [Compound 360]: < 1000 nM
- COc1cc(C(=O)NCC(O)(c2cc(C(C)(N)CF)cc(-c3ccc(F)cc3)n2)C(F)(F)F)ccc1OC[C@@H](C)O (stereo partly drawn) [Compound 614]: < 1000 nM
- CNC(C)c1cc(-c2ccc(F)c(Cl)c2)nc(C(O)(CNC(=O)c2ccc(OC3CC3)c(OC)c2)C(F)(F)F)c1 (stereo not drawn) [Compound 466]: < 1000 nM
- COc1cc(C(=O)NC[C@](O)(c2cc(C(C)(C)N)cc(-c3ccc(F)c(Cl)c3)n2)C(F)(F)F)ccc1OC[C@@H](C)O [Compound 552]: < 1000 nM
- COc1cc(C(=O)NCC(O)(c2ccc(OC)c(-c3ccc(F)c(Cl)c3)n2)C(C)(C)C)ccc1OCCF (stereo not drawn) [Compound 313]: 1000 to 50000 nM
- COc1cc(C(=O)NCC(O)(c2cc(C(C)(C)N)cc(-c3ccc(F)cc3)n2)C2CC2)ccc1OCCO (stereo not drawn) [Compound 634]: < 1000 nM
- COc1ccc(C(=O)NCC(=O)c2nc(-c3csc4c(F)cccc34)c3ccccn23)cc1OC [Compound 130]: < 1000 nM
- CCc1ccc(C(C)(O)CNC(=O)c2ccc(OC)c(OC)c2)nc1-c1csc2c(F)cccc12 (stereo not drawn) [Compound 115]: < 1000 nM
- COc1cc(C(=O)NCC(=O)c2cc3c(c(-c4ccc(F)c(Cl)c4)n2)OCC3(C)C)cc2cccnc12 [Compound 220]: 1000 to 50000 nM

Batch request: EC50 per item, same order as input.
1. CNC(C)(C)c1cc(-c2ccc(F)c(Cl)c2)nc(C(O)(CNC(=O)c2ccc(O[C@H]3CCNC3=O)c(OC)c2)C(F)(F)F)c1 (stereo partly drawn) [Compound 485]
2. COc1cc(C(=O)NCC(O)(c2cc3c(c(-c4ccc(F)c(Cl)c4)n2)OCC3(C)C)C(F)(F)F)cc2cccnc12 (stereo not drawn) [Compound 208]
3. COc1cc(C(=O)NCC(O)(c2cc(C(C)(N)CF)cc(-c3ccc(F)cc3)n2)C(F)(F)F)ccc1OCCO (single isomer, unassigned) [Compound 664]
4. CCC(O)(CNC(=O)c1ccc(OCCF)c(OC)c1)c1ccc(OC)c(-c2ccc(F)c(Cl)c2)n1 (racemic) [Compound 122]
5. COc1cc(C(=O)NCC(C)(O)c2ccc(OC)c(-c3ccc(F)c(Cl)c3)n2)ccc1OCCF (stereo not drawn) [Compound 119]

["< 1000 nM", "< 1000 nM", "< 1000 nM", "< 1000 nM", "< 1000 nM"]

---

I'd be grateful if you could share measured pIC50 for these entries.
Target: recombinant RSV complex (Human respiratory syncytial virus A)
Assay: RSV Polymerase Inhibition Assay
Type: biochemical
Experimental: Standard RSV polymerase assays were conducted in the presence of 10 nM recombinant RSV complex in a reaction buffer containing Tris-HCl pH7.5, 6 mM MgCl2, and other additives and substrates including RNA oligonucleotides and radionucleotides. Standard reactions were incubated in 96-well plate format for 2 h at 30° C., in the presence of increasing concentration of inhibitor. The reaction was stopped with 90 μL of 0.1M EDTA, and the reaction product was transferred to a “reading” 96-well plate. […]
pIC50: −log10 of the molar value.

Worked examples, 3 compounds total:
* CC(C)(N)c1cc(-c2ccc(F)c(Cl)c2)nc(C(O)(CNC(=O)c2ccc(OC3CCNC3=O)c(Cl)c2)C(F)(F)F)c1 (stereo not shown) | > 6.00
* CC#CC(O)(CNC(=O)c1ccc(OCCF)c(OC)c1)c1ccc(OC)c(-c2ccc(F)c(Cl)c2)n1 (stereo not shown) | > 5.00
* COc1cc(C(=O)NCC(O)(c2cc(C(C)(C)N)cc(-c3ccc(F)cc3)n2)C(F)(F)F)ccc1O[C@H]1CCNC1=O (stereo partly shown) | > 6.00

In the following, a different compound is considered.
Write down the reported pIC50 of CCNC(C)(C)c1cc(-c2ccc(F)c(Cl)c2)nc(C(O)(CNC(=O)c2ccc(OC[C@H](C)O)c(OC)c2)C(F)(F)F)c1 (stereo partly shown) , test system: recombinant RSV complex (Human respiratory syncytial virus A). > 6.00

---

molecular target: recombinant RSV complex (Human respiratory syncytial virus A, UniProt P28887); assay: RSV Polymerase Inhibition Assay; type: biochemical
Sequence (P28887 whole entry): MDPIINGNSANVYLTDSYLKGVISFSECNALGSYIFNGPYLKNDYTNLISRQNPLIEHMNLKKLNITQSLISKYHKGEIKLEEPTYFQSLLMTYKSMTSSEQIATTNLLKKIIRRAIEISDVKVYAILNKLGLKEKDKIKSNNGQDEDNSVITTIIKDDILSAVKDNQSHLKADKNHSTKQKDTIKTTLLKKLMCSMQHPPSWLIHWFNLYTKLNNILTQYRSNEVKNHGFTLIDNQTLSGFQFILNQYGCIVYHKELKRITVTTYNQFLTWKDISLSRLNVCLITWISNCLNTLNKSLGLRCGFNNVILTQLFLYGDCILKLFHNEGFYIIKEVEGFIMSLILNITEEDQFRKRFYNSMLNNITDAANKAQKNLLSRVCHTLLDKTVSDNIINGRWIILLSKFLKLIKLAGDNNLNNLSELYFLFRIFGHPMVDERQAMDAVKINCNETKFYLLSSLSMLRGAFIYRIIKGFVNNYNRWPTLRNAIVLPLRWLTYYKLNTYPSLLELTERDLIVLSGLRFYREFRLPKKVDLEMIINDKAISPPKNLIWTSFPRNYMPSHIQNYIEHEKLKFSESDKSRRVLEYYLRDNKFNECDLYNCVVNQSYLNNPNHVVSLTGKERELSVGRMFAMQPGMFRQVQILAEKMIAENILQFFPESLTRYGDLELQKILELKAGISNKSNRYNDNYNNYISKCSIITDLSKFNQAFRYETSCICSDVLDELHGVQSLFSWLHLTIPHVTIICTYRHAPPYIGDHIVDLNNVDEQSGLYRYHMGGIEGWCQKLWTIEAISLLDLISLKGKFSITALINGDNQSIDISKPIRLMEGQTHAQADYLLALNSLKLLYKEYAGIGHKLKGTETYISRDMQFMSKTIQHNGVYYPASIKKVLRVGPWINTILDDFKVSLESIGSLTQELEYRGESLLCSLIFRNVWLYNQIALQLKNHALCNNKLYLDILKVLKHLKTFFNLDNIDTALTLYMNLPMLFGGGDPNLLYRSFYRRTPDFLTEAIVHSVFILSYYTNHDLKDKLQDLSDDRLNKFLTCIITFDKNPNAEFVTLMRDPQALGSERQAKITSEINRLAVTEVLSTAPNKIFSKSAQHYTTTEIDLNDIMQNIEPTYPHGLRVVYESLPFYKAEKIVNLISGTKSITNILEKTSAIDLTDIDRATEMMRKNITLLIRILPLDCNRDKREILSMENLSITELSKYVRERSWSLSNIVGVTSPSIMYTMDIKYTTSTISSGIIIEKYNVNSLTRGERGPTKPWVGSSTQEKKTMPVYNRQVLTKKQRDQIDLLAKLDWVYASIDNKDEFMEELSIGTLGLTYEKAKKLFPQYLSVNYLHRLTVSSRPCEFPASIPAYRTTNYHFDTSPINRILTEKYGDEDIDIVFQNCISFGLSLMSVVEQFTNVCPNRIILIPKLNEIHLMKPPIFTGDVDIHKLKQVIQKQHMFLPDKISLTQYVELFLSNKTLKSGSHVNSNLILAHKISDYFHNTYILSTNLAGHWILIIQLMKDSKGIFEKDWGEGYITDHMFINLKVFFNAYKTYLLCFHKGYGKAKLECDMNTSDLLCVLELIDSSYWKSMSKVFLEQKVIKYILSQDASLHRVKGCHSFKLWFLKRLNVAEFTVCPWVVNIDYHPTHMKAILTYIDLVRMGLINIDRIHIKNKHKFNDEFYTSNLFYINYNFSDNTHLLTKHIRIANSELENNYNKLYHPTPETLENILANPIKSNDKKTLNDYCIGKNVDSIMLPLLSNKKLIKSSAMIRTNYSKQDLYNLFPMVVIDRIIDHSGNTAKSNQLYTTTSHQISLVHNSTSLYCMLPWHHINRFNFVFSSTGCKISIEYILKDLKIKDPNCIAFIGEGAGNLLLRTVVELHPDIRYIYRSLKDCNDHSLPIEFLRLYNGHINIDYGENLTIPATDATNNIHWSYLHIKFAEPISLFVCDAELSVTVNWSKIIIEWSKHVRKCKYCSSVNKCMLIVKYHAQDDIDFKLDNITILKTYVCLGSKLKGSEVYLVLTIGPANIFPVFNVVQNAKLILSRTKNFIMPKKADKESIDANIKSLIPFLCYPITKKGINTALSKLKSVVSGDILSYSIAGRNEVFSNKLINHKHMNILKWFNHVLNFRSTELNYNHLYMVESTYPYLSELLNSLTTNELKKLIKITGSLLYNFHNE
Sequence (P03421 whole entry, further chain): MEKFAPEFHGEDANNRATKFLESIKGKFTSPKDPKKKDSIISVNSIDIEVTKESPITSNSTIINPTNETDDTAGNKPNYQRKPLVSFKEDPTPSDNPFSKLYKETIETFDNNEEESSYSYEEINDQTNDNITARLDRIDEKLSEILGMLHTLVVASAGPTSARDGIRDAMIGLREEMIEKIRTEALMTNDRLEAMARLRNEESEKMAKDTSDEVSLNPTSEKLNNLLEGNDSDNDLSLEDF
metric: IC50

Worked examples, 3 molecules total:
• COc1cc(C(=O)NCC(O)(c2ccc(OC)c(-c3ccc(F)c(Br)c3)n2)C(F)(F)F)ccc1OCC(N)=O (stereo not shown) = < 1 µM
• COc1cc(C(=O)NCC(O)(c2cc(C(C)(C)N)cc(-c3ccc(F)c(Cl)c3)n2)C(F)(F)F)ccc1OCC(F)(F)F (stereo not shown) = < 1 µM
• COc1cc(C(=O)NCC(C)(O)c2nc(-c3ccc(F)c(Cl)c3)ccc2F)ccc1OCC(N)=O (stereo not shown) = < 10 µM

In the following, a different molecule is considered.
Reported IC50 for COc1cc(C(=O)NCC(O)(c2cc(CO)cc(-c3ccc(F)c(Cl)c3)n2)C(F)(F)F)ccc1OC1CC1 (stereo not shown) : what is it? < 1 µM

---

I'd be grateful if you could share measured EC50 for these entries.
tested on: Respiratory Syncytial Virus (RSV) long strain; assay: microbe, parasite or virus in culture; assay type: cell-based; details: human respiratory syncytial virus, HEp-2, 120 h, read-out: 50% effective concentration (EC50), HEp-2 cells infected with RSV long strain, 5 days, CCK-8 readout; Tables A and B list compounds by EC50 band

Worked examples, 6 compounds total:
- COc1cc(C(=O)NCC(O)(c2cc(C(C)(C)NC(C)=O)cc(-c3ccc(F)cc3)n2)C(F)(F)F)ccc1OCC(N)=O (stereo not shown): < 1000 nM
- COc1cc(C(=O)NC[C@](O)(c2cc(C(C)(C)N)cc(-c3ccc(C#N)cc3)n2)C(F)(F)F)ccc1OC[C@@H](C)O [Compound 624b]: < 1000 nM
- COc1cc(C(=O)NCC(O)(c2cc3c(c(-c4ccc(F)c(Cl)c4)n2)OCC3C)C2CC2)ccc1OCCO (stereo not shown): < 1000 nM
- COc1cc(C(=O)NC[C@](O)(c2cc3c(c(-c4ccc(F)cc4)n2)OCC3(C)CN)C(F)(F)F)ccc1OCCO (stereo partly shown) [Compound 633b]: < 1000 nM
- COc1cc(C(=O)NCC(O)(c2cc3c(c(-c4ccc(F)c(F)c4)n2)OCC3(C)N)C(F)(F)F)ccc1OCCO (stereo not shown): < 1000 nM
- COc1cc(C(=O)NCC(O)(c2ccc(OC)c(-c3ccc(F)c(Cl)c3)n2)C(F)(F)F)ccc1OC[C@@H](C)O (stereo partly shown): < 1000 nM

In the following, a different compound is considered.
Reported EC50 for CNC(C)(C)c1cc(-c2ccc(F)c(Cl)c2)nc(C(O)(CNC(=O)c2ccc(OC[C@@H](C)O)c(OC)c2)C(F)(F)F)c1 (stereo partly shown) : what is it? < 1000 nM

---

target: recombinant RSV complex (Human respiratory syncytial virus A, UniProt P28887); test: RSV Polymerase Inhibition Assay; format: biochemical
pIC50: −log10 of the molar value.
I'd be grateful if you could share measured pIC50 for these entries.

Worked examples, 8 compounds total:
- CC1(N)COc2c1cc(C(O)(CNC(=O)c1ccc(OC3CC3)c(CO)c1)C(F)(F)F)nc2-c1ccc(F)cc1 (centres unmarked): > 6.00
- COc1cc(C(=O)NC[C@](O)(c2cc3c(c(-c4ccc(F)cc4)n2)OCC3(C)CN)C(F)(F)F)ccc1OCCO (some centres unmarked) [Compound 633b]: > 6.00
- COc1cc(C(=O)NCC(O)(c2cc(C(C)(N)CF)cc(-c3ccc(F)c(Cl)c3)n2)C(F)(F)F)ccc1OC1CC1 (centres unmarked): > 6.00
- COC(=O)C(C)(N)c1cc(-c2ccc(F)cc2)nc(C(O)(CNC(=O)c2ccc(OC3CC3)c(OC)c2)C(F)(F)F)c1 (centres unmarked): > 6.00
- COc1cc(C(=O)NCC(O)(c2cc(C(C)(C)N)cc(-c3ccc(F)c(Cl)c3)n2)C(F)(F)F)ccc1OCC(=O)O (centres unmarked): > 6.00
- CC(C)(N)c1cc(-c2ccc(F)c(Cl)c2)nc(C(O)(CNC(=O)c2coc(Cl)n2)C(F)(F)F)c1 (centres unmarked): > 5.00
- COc1cc(C(=O)NCC(O)(c2ccc(CN)c(-c3ccc(F)cc3)n2)C(F)(F)F)ccc1OC1CC1 (centres unmarked): > 6.00
- COc1cc(C(=O)NCC(O)(c2ccc(OC)c(C3COc4c(F)cccc43)n2)C2CC2)ccc1OCCO (centres unmarked): > 4.00

Batch request: pIC50 per item, same order as input.
1. COc1ccc(C(C)(O)CNC(=O)c2ccc(-c3nc(C)no3)cc2)nc1-c1ccc(F)c(Cl)c1 (centres unmarked)
2. CCOc1ccc(C(=O)NCC(O)(c2cc3c(c(-c4ccc(F)c(Cl)c4)n2)OCC3(C)N)C(F)(F)F)cc1Cl (centres unmarked)
3. COc1cc(C(=O)NCC(O)c2ccc(OC)c(-c3ccc(F)c(Cl)c3)n2)ccc1OC(F)F (centres unmarked)
4. COc1cc(C(=O)NCC(O)(c2ccc(OC)c(-c3ccc(F)c(Cl)c3)n2)C(F)(F)F)ccc1OCC(F)F (centres unmarked)
5. COc1cc(C(=O)NCC(F)c2ccc(OC)c(-c3ccc(F)c(Cl)c3)n2)ccc1OCCO (centres unmarked)
6. COc1cc(C(=O)NCC(O)(c2ccc(OC)c(-c3ccc(F)c(Cl)c3)n2)C(F)(F)F)ccc1OCCO (centres unmarked)

1. > 5.00
2. > 6.00
3. > 5.00
4. > 6.00
5. > 5.00
6. > 6.00
